- tested on: full-length beta-Catenin (Uniprot ID P35222) (Homo sapiens)
- Construct: 10 nM full-length beta-Catenin (Uniprot ID P35222)
- Sequence (P35222 whole entry): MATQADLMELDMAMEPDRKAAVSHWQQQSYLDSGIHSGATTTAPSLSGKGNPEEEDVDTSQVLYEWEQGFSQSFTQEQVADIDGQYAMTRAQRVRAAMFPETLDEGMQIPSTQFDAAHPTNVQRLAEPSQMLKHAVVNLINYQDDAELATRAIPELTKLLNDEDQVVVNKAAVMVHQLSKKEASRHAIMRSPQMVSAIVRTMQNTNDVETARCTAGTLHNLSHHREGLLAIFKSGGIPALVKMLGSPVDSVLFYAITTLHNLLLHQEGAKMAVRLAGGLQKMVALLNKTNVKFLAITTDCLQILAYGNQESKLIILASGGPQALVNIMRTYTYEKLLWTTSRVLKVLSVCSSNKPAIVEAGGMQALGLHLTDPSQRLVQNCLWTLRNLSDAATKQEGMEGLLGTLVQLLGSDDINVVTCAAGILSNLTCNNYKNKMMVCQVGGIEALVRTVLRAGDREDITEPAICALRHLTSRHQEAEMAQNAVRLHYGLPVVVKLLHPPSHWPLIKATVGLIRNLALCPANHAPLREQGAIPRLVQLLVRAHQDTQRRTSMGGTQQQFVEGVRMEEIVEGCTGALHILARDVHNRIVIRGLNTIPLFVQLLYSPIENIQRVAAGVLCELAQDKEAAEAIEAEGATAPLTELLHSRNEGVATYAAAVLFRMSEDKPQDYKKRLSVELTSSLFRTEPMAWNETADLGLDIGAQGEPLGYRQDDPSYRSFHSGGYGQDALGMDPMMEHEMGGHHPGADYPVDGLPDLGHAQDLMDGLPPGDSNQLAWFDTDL
- protocol description: Fluorescence polarization IC50 (beta-catenin / 5FAM-TCF4 10-53 competition)
- Format: binding
- test parameters: fluorescence polarization; read-out: beta-Catenin FP IC50
For each entry below, report its IC50 value.
Quick note: give the figure in nM, leave out the unit.

Ask: Check the records and state IC50 for CC(=O)N1CCC[C@]12CC=CCCCC1(CCCC=CCCCOC(=O)N3CC[C@@](C(=O)N[C@@H](Cc4ccccc4C(F)(F)F)C(=O)N[C@@H](Cc4csc5ccccc45)C(=O)N[C@@H](CCC(N)=O)C(N)=O)(C3)NC(=O)[C@H](CC(C)C)NC(=O)[C@H](Cc3ccccc3)NC(=O)[C@H](C)NC(=O)[C@H](C)NC(=O)[C@H](Cc3ccccc3C(=O)O)NC(=O)[C@H](CC(=O)O)NC1=O)NC(=O)[C@H](CC(C)(C)C)NC(=O)[C@H](CC(=O)O)NC2=O (stereo partly drawn)
Result: 20

Ask: // fetch IC50 given entry CC(=O)N1CCC[C@]12CC=CCCCC1(CCCC=CCCCOC(=O)N3CC[C@@](C(=O)N[C@@H](Cc4ccsc4)C(=O)N[C@@H](Cc4csc5ccccc45)C(=O)N[C@@H](CO)C(N)=O)(C3)NC(=O)[C@H](CC(C)C)NC(=O)[C@H](Cc3ccccc3)NC(=O)[C@H](C)NC(=O)[C@H](C)NC(=O)[C@H](Cc3cc(C(=O)O)cc(C(F)(F)F)c3)NC(=O)[C@H](CC(=O)O)NC1=O)NC(=O)[C@H](CC(C)(C)C)NC(=O)[C@H](CC(=O)O)NC2=O (stereo partly drawn)
Result: 50

Ask: Give recorded IC50. CC(=O)N1CCC[C@]12CC=CCCCC1(CCCC=CCCCOC(=O)N3CC[C@@](C(=O)N[C@@H](Cc4ccccc4Cl)C(=O)N[C@@H](Cc4csc5ccccc45)C(=O)N[C@@H](CCC(N)=O)C(N)=O)(C3)NC(=O)[C@H](CC(N)=O)NC(=O)[C@H](Cc3ccccc3)NC(=O)[C@H](C)NC(=O)[C@H](C)NC(=O)[C@H](CNCCC(F)(F)F)NC(=O)[C@H](CC(=O)O)NC1=O)NC(=O)[C@H](CC(C)(C)C)NC(=O)[C@H](CC(=O)O)NC2=O (stereo partly drawn)
Result: 43

Ask: Report measured IC50; entry is COc1ccccc1C[C@H](NC(=O)[C@]1(C)CCCCCCC=CCCCC2(CCCC=CC[C@]3(CCCN3C(C)=O)C(=O)N[C@@H](CC(=O)O)C(=O)N[C@@H](C)C(=O)N2)C(=O)N[C@@H](CC(=O)O)C(=O)N[C@@H](CCC(=O)O)C(=O)N[C@@H](C)C(=O)N[C@@H](C)C(=O)N[C@@H](Cc2ccccc2)C(=O)N[C@@H](CC(N)=O)C(=O)N1)C(=O)N[C@@H](Cc1csc2ccccc12)C(=O)N[C@@H](Cc1c[nH]cn1)C(N)=O (stereo partly drawn) [I-510]
Result: 128

Ask: Please report the measured IC50 for CC[C@H](C)[C@@H]1NC(=O)[C@H](CC(=O)O)NC(=O)[C@]2(CC=CCCCC3(CCCC=CCCCCCC[C@@](C)(C(=O)N[C@@H](Cc4ccccc4)C(=O)N[C@@H](Cc4csc5ccccc45)C(=O)N[C@@H](CCC(N)=O)C(N)=O)NC(=O)[C@H](CCC(N)=O)NC(=O)[C@H](Cc4ccccc4)NC(=O)[C@H](C)NC(=O)[C@H](C)NC(=O)[C@H](CCCNC(N)=O)NC(=O)[C@H](CC(=O)O)NC3=O)NC1=O)CCCN2C(C)=O (stereo partly drawn) [I-604]
Result: 692

Ask: Give the reported value of IC50 for this record: CC(=O)N1CCC[C@]12CC=CCCCC1(CCCC=CCCCOC(=O)N3CCC(C(=O)N[C@@H](Cc4ccccc4C(F)(F)F)C(=O)N[C@@H](Cc4csc5ccccc45)C(=O)N[C@@H](CCC(N)=O)C(N)=O)(CC3)NC(=O)[C@H](CC(C)C)NC(=O)[C@H](Cc3ccccc3)NC(=O)[C@H](C)NC(=O)[C@H](C)NC(=O)[C@H](Cc3cccc(C(=O)O)c3)NC(=O)[C@H](CC(=O)O)NC1=O)NC(=O)[C@H](CC(C)(C)C)NC(=O)[C@H](CC(=O)O)NC2=O (stereo partly drawn) [I-2581]
Result: 205

====

- protocol description: CHI Log D procedure
- Assay type: physicochemical
- test parameters: pH 7.4
Give measured CHI Log D for each item. Keep answers brief.

Ask: Input CC(=O)N[C@@H](Cc1ccccc1)C(=O)N[C@@H](CC(=O)O)C(=O)N[C@@H](C)C(=O)N[C@]1(C)CCCCCCC=CCOC(=O)N2CC[C@@](C(=O)N[C@@H](Cc3ccccc3)C(=O)N[C@@H](Cc3c[nH]c4ccccc34)C(=O)N[C@@H](CCC(N)=O)C(N)=O)(C2)NC(=O)[C@H](C(C)C)NC(=O)[C@H](Cc2ccccc2)NC(=O)[C@H](C)NC(=O)[C@H](C)NC(=O)[C@H](CC2CCCCC2)NC(=O)[C@H](CC(=O)O)NC1=O (single isomer, unassigned) , output reported CHI Log D.
Result: 2.21

Ask: Tell me measured CHI Log D for CC(=O)N[C@@H](Cc1ccccc1)C(=O)N[C@@H](CC(=O)O)C(=O)N[C@@H](C)C(=O)N[C@]1(C)CCCCCC=CCOC(=O)N2CC[C@@](C(=O)N[C@@H](Cc3ccccc3)C(=O)N[C@@H](Cc3c[nH]c4ccccc34)C(=O)N[C@@H](CCC(N)=O)C(N)=O)(C2)NC(=O)[C@H](C(C)C)NC(=O)[C@H](Cc2ccccc2)NC(=O)[C@H](C)NC(=O)[C@H](C)NC(=O)[C@H](CC(=O)O)NC(=O)[C@H](CC(=O)O)NC1=O [I-30] please.
Result: 1.228

Ask: Read off the recorded CHI Log D for CC[C@H](C)[C@@H]1NC(=O)[C@H](CC(=O)O)NC(=O)[C@]2(CC=CCCCC3(CCCC=CCCCCCC[C@@](C)(C(=O)N[C@@H](Cc4ccsc4)C(=O)N[C@@H](Cc4csc5ccccc45)C(=O)N[C@@H](Cc4c[nH]cn4)C(N)=O)NC(=O)[C@H](CC(N)=O)NC(=O)[C@H](Cc4ccccc4)NC(=O)[C@H](C)NC(=O)[C@H](C)NC(=O)[C@H](CC(=O)O)NC(=O)[C@H](CC(=O)O)NC3=O)NC1=O)CCCN2C(C)=O (stereo partly shown) [I-556]
Result: 2.435

Ask: Item CC[C@H](C)[C@@H]1NC(=O)[C@H](CC(=O)O)NC(=O)[C@]2(CC=CCCCC3(CCCC=CCOC(=O)N(C)CCC[C@@](C)(C(=O)N[C@@H](Cc4ccccc4)C(=O)N[C@@H](Cc4c[nH]c5ccccc45)C(=O)N[C@@H](Cc4c[nH]cn4)C(N)=O)NC(=O)[C@H](CCC(N)=O)NC(=O)[C@H](Cc4ccccc4)NC(=O)[C@H](C)NC(=O)[C@H](C)NC(=O)[C@H](CC(=O)O)NC(=O)[C@H](CC(=O)O)NC3=O)NC1=O)CCCN2C(C)=O (stereo partly shown) [I-188] : provide CHI Log D
Result: 1.611

Ask: Write down CHI Log D measured for item CC(=O)N1CCC[C@]12CC=CCCCC1(CCCC=CCCCOC(=O)N3CC[C@@](C(=O)N[C@@H](Cc4ccsc4)C(=O)N[C@@H](Cc4csc5ccccc45)C(=O)N[C@@H](CCO)C(N)=O)(C3)NC(=O)[C@H](CC(N)=O)NC(=O)[C@H](Cc3ccccc3)NC(=O)[C@H](C)NC(=O)[C@H](C)NC(=O)[C@H](CN(CC(=O)O)CC(F)(F)F)NC(=O)[C@H](CC(=O)O)NC1=O)NC(=O)[C@H](CC(C)(C)C)NC(=O)[C@H](CC(=O)O)NC2=O (stereo partly shown) [I-950]
Result: 1.9

Ask: Give the reported CHI Log D for this compound. CC(=O)N1CCC[C@]12CC=CCCCC1(CCCC=CCOC(=O)N(C)CCC[C@@](C)(C(=O)N[C@@H](Cc3ccsc3)C(=O)N[C@@H](Cc3csc4ccccc34)C(=O)N[C@@H](CCC(N)=O)C(N)=O)NC(=O)[C@H](CC(N)=O)NC(=O)[C@H](Cc3ccccc3)NC(=O)[C@H](C)NC(=O)[C@H](C)NC(=O)[C@H](CC(=O)O)NC(=O)[C@H](CC(=O)O)NC1=O)NC(=O)[C@H](CC(C)(C)C)NC(=O)[C@H](CC(=O)O)NC2=O (stereo partly shown) [I-766]
Result: 1.853

Ask: Output measured CHI Log D for this item: CC[C@H](C)[C@@H]1NC(=O)[C@H](CC(=O)O)NC(=O)[C@]2(CC=CCCCC3(CCCC=CCCCCCC[C@@](C)(C(=O)N[C@@H](Cc4ccccc4)C(=O)N[C@@H](Cc4csc5ccccc45)C(=O)N[C@@H](CO)C(N)=O)NC(=O)[C@H](CCC(N)=O)NC(=O)[C@H](Cc4ccccc4)NC(=O)[C@H](C)NC(=O)[C@H](C)NC(=O)[C@H](CCC(=O)O)NC(=O)[C@H](CC(=O)O)NC3=O)NC1=O)CCCN2C(C)=O (stereo partly shown) [I-640]
Result: 2.516

Source of measurements: patent US20240116985A1
